Source: PubChem BioAssay (NCATS)

# protocol description: NFAT Signaling Pathway (AID 444);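 note: carbachol stimulus at about its EC50 of 1 µM final; % is set by controls: 0 for no effect and ±100 for the full control effect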
# condition context: Jurkat NFAT-bla M1, carbachol, beta-lactamase ratio, 5 h; at 7.69 µM (top of the series) unless noted
# Method: NCGC Assay Overview: The nuclear factor of activated T cells (NFAT) family of transcription factors has been found primarily in most immune system cells and some other non-immune cells. NFAT plays the immunomodulatory role, primarily in T-cell activation and differentiation. […] NCGC Assay Protocol Summary: The cells were prepared in RPMI 1640 medium containing 0.1% dialyzed FBS and 25 mM HEPES at 1.6 x 10^6cell/ml. […] The %Activity was determined from the ratio of 460nm/530nm. […]
Records with an inconclusive call do not appear.
quantity kind: activity change, negative = inhibition (%)
Unit % implied. Number only.

The recorded activity change, negative = inhibition for entry CCNc1ncc2nc(CCc3ccccc3)c(=O)n(CCOC)c2n1 equals 2.18

The recorded activity change, negative = inhibition for entry COc1ccc(-n2c(=O)c(-c3cccs3)nc3cnc(N(C)C)nc32)cc1 equals -4.88

The recorded activity change, negative = inhibition for entry c1cncc(CNc2nc(-c3ccoc3)nc3ccccc23)c1 equals -9.01

The recorded activity change, negative = inhibition for entry Cc1noc(C)c1C(=O)N1CCC2(CC1)CN(c1ncccn1)C2 equals 13.3

The recorded activity change, negative = inhibition for entry CC(=O)NCCNc1ncncc1-c1ccccc1C equals 5.27

The recorded activity change, negative = inhibition for entry N#CCCn1c(=O)c(-c2ccc(F)cc2)nc2cnc(N3CCOCC3)nc21 equals 13.6

The recorded activity change, negative = inhibition for entry COC(=O)N1CCC[C@@]2(CCN(c3ccncc3)C2)C1 equals -14.4

The recorded activity change, negative = inhibition for entry COc1ccc(NC(=O)N2CCCC3(CCN(C(=O)c4csnn4)CC3)C2)cc1 equals -2.25

The recorded activity change, negative = inhibition for entry CN(C)Cc1ccccc1-c1nc(N2CCOCC2)c2ccccc2n1 equals -1.63

The recorded activity change, negative = inhibition for entry COc1ccccc1-c1cncnc1-n1ccnc1 equals 1.61

The recorded activity change, negative = inhibition for entry COc1ccccc1-c1cc(NCc2cccnc2)ncn1 equals -4.97

The recorded activity change, negative = inhibition for entry CNc1cc(-c2c(C)noc2C)ncn1 equals 3.01

The recorded activity change, negative = inhibition for entry Cn1cccc1C(=O)N1CCC[C@@]2(CCN(c3ccccn3)C2)C1 equals -3.64

The recorded activity change, negative = inhibition for entry Cc1nc2cnc(N3CCN(C)CC3)nc2n(Cc2cccs2)c1=O equals -2.27

The recorded activity change, negative = inhibition for entry CS(=O)(=O)N1CCC2(CCN(c3cccc(-c4ccccc4)c3)CC2)CC1 equals 10.1

The recorded activity change, negative = inhibition for entry CN1CCC2(CC1)CCN(C(=O)c1cc(C(F)(F)F)cc(C(F)(F)F)c1)CC2 equals -5.98

The recorded activity change, negative = inhibition for entry COc1ccccc1-c1cncnc1Nc1ccc(F)cc1 equals 1.41

The recorded activity change, negative = inhibition for entry CN1CCN(c2nc(-c3ccc(N(C)C)cc3)nc3ccccc23)CC1 equals -2.47

The recorded activity change, negative = inhibition for entry COCCNc1nc(-c2ccccc2OC)nc2ccccc12 equals 8.54

The recorded activity change, negative = inhibition for entry COc1ccc(-n2c(=O)c(-c3ccc(F)cc3)nc3cnc(N4CCOCC4)nc32)cc1 equals 12.6

The recorded activity change, negative = inhibition for entry CC(C)NC(=O)N1CCC2(CC1)CCN(C(=O)c1ccncc1)CC2 equals 1.59

The recorded activity change, negative = inhibition for entry Cc1cnc(CNc2ncncc2-c2c(C)noc2C)cn1 equals 1.67

The recorded activity change, negative = inhibition for entry COc1cccc(Nc2ncc3nc(C)c(=O)n(C4CC4)c3n2)c1 equals 5.07

The recorded activity change, negative = inhibition for entry COCCn1c(=O)c(CCc2ccccc2)nc2cnc(N3CCN(C)CC3)nc21 equals -7.4

The recorded activity change, negative = inhibition for entry O=C(c1ccco1)N1CCC2(CC1)CN(C(c1ccccc1)c1ccccc1)C2 equals 11

The recorded activity change, negative = inhibition for entry O=C(Nc1ccccc1)N1CC[C@@]2(CCCN(C(=O)c3ccco3)C2)C1 equals 4.43

The recorded activity change, negative = inhibition for entry Clc1ccccc1-c1nccc(NCc2cccs2)n1 equals 0.38

The recorded activity change, negative = inhibition for entry COc1ccc(NC(=O)N2CCCC3(CCN(S(C)(=O)=O)CC3)C2)cc1 equals 21.9

The recorded activity change, negative = inhibition for entry COc1ccc(Oc2ncc3nc(-c4cc(F)cc(F)c4)c(=O)n(CCC#N)c3n2)cc1 equals -14.9

The recorded activity change, negative = inhibition for entry Cn1c(=O)c(-c2cc(F)cc(F)c2)nc2cnc(N3CCOCC3)nc21 equals 14.4

The recorded activity change, negative = inhibition for entry COc1ccccc1-c1nccc(NC2CCNCC2)n1 equals 5.88

The recorded activity change, negative = inhibition for entry FC(F)(F)c1ccccc1-c1cc(NCc2ccccc2)ncn1 equals -0.248

The recorded activity change, negative = inhibition for entry COc1ccc(Oc2ncc3nc(-c4cccs4)c(=O)n(CCC#N)c3n2)cc1 equals -5.68

The recorded activity change, negative = inhibition for entry O=C(c1cnccn1)N1CCC[C@@]2(CCN(c3ccncc3)C2)C1 equals 1.53

The recorded activity change, negative = inhibition for entry c1ccc(CNc2cc(-c3cccnc3)ncn2)cc1 equals 15.4

The recorded activity change, negative = inhibition for entry O=c1cnc2cnc(Oc3cccc(Cl)c3)nc2n1Cc1ccc(F)cc1 equals -9.66

The recorded activity change, negative = inhibition for entry CN1CCN(c2nc(-c3ccccc3C(F)(F)F)nc3ccccc23)CC1 equals -6.69

The recorded activity change, negative = inhibition for entry CN(C)c1ncnc2ccc(-c3ccoc3)cc12 equals 1.35

The recorded activity change, negative = inhibition for entry COC(=O)N1CCC2(CCCN(Cc3ccccc3OC)C2)CC1 equals -73.7

The recorded activity change, negative = inhibition for entry O=c1c(-c2ccc(F)cc2)nc2cnc(N3CCOCC3)nc2n1Cc1cccs1 equals 13.3

The recorded activity change, negative = inhibition for entry COCCn1c(=O)cnc2cnc(OC)nc21 equals 1.87

The recorded activity change, negative = inhibition for entry Cc1cccc(CNc2ncnc3ccc(-c4cccc(C#N)c4)cc23)c1 equals -25.8

The recorded activity change, negative = inhibition for entry COCCNc1ncnc2ccc(-c3ccoc3)cc12 equals 11.2

The recorded activity change, negative = inhibition for entry CC(=O)N1CCC2(CC1)CN(c1ccccn1)C2 equals 6.27

The recorded activity change, negative = inhibition for entry COc1ccc(NC(=O)N2CC[C@@]3(CCCN(C(=O)c4csnn4)C3)C2)cc1 equals 17.4

The recorded activity change, negative = inhibition for entry CC(C)NC(=O)N1CC[C@@]2(CCCN(C(=O)Oc3ccccc3)C2)C1 equals -15.6

The recorded activity change, negative = inhibition for entry CCNc1ncc2nc(C)c(=O)n(C)c2n1 equals 2.38

###

# protocol description: qHTS for differential inhibitors of proliferation of Plasmodium falciparum line 3D7 (AID 1876)
# condition context: P. falciparum 3D7 proliferation inhibition; series mostly up to 28.7 µM
Records with an inconclusive call do not appear. Activity calls are given as the source filed them. Calls follow the shape of the dose curve; as a rule, active = well fitted curve in the direction sought with a large enough effect; inconclusive = small, poorly fitted or top-dose-only effect, or another doubt; inactive = no such curve, though single readings can be large or run the other way.
Would you mind answering with one of these outcomes? True for active, False for inactive

[in] Test call, this molecule: Cc1ccccc1N1CCN(S(=O)(=O)C[C@]23CCC(CC2NC(=O)[C@@H](N)CCS(C)(=O)=O)C3(C)C)CC1 (stereo partly drawn)
[out] False

[in] Test call, this molecule: CC(C)CN(C)c1nc(N)c(C(=O)N=C(N)N)nc1Cl
[out] True

[in] Test call, this molecule: CSc1nc(N)c2ncn([C@@H]3O[C@H](COP(=O)(O)OP(=O)(O)O)[C@H](O)[C@H]3O)c2n1
[out] False

[in] Test call, this molecule: NCC1OC(O[C@@H]2[C@H](O)[C@@H](OC3C(O)C(N)CC(N)C3OC3OC(CO)C(O)C(O)C3N)O[C@@H]2CO)C(N)C(O)C1O (stereo partly drawn)
[out] False

[in] Test call, this molecule: CC(C)C1NC(=O)[C@H](CCCCN)NC(=O)[C@@H](Cc2c[nH]c3ccccc23)NC(=O)[C@H](Cc2ccc(O)cc2)NC(=O)[C@H](C)N(C)C(=O)[C@H](Cc2ccccc2)NC1=O (stereo partly drawn)
[out] False

[in] Test call, this molecule: C[C@]12CCC(=O)C=C1CC[C@@H]1C2[C@@H](O)C[C@@]2(C)[C@H]1CC[C@]2(O)C(=O)CO (stereo partly drawn)
[out] False

[in] Test call, this molecule: N[C@H](Cc1ccc(O)c(O)c1)C(=O)O
[out] False

[in] Test call, this molecule: CNc1ncnc2c1ncn2[C@@H]1O[C@H](CO)[C@H](O)[C@H]1O
[out] False

###

# protocol description: qHTS Assay for Lipid Storage Modulators (AID 1519)
# condition context: Drosophila S3 cells, BODIPY lipid droplet/cell ratio, laser cytometry; measured here: cell count channel max response; cells loaded with oleic acid
Inconclusive results are not listed.
quantity kind: max response (%)
Unit % implied. Number only.

The recorded max response for entry COc1ccccc1-c1nccc(NC2CCNCC2)n1 equals 7.38

The recorded max response for entry N#CCCn1c(=O)c(-c2ccc(Cl)cc2)nc2cnc(Oc3ccccc3)nc21 equals 19.6

The recorded max response for entry COc1cccc(Cn2c(=O)cnc3cnc(Oc4ccccc4)nc32)c1 equals 3.98

The recorded max response for entry COc1ccc(-c2nc3cnc(N4CCNCC4)nc3n(CCc3ccccc3)c2=O)cc1 equals -3.35

The recorded max response for entry CN(C)c1ncc2ncc(=O)n(Cc3ccc(F)cc3)c2n1 equals 6.58

The recorded max response for entry COc1ncc2nc(-c3cc(F)cc(F)c3)c(=O)n(CCC#N)c2n1 equals 17.3

The recorded max response for entry CC(=O)N1CCC2(CC1)CN(Cc1ccccc1)C2 equals -1.63

The recorded max response for entry CS(=O)(=O)N1CCC2(CCN(C(=O)Nc3cccc(F)c3)CC2)CC1 equals 4.7

The recorded max response for entry c1nc(N2CCNCC2)c2cc(-c3ccoc3)ccc2n1 equals 29.3

The recorded max response for entry Cn1cc(-c2nc3cncnc3n(Cc3ccc(F)cc3)c2=O)c2ccccc21 equals 15.3

The recorded max response for entry O=C(c1cccc(F)c1)N1CCC2(CCN(Cc3cc(C(F)(F)F)cc(C(F)(F)F)c3)CC2)CC1 equals 10.5

The recorded max response for entry COCCn1c(=O)cnc2cnc(Oc3ccc(OC)cc3)nc21 equals 12.6

The recorded max response for entry CCNc1ncc2nc(C)c(=O)n(C3CC3)c2n1 equals 6.66

The recorded max response for entry COc1cccc(Nc2ncc3nc(-c4cn(C)c5ccccc45)c(=O)n(CCC#N)c3n2)c1 equals 27

The recorded max response for entry COc1ccccc1-c1nccc(-n2ccnc2)n1 equals 15.1

The recorded max response for entry CC(C)=CCC1=C(O)c2ccccc2C(=O)C1=O equals -0.752

The recorded max response for entry CN1CCN(c2ncc3nc(-c4ccc(Cl)cc4)c(=O)n(Cc4cccs4)c3n2)CC1 equals 19.7

The recorded max response for entry CC(=O)N1CCC2(CCCN(C(c3ccccc3)c3ccccc3)C2)CC1 equals 3.3

The recorded max response for entry COc1ccc(C(=O)N2CCC3(CC2)CN(Cc2ccc(C#N)cc2)C3)cc1 equals 13.1

The recorded max response for entry CN(C)c1ncc2ncc(=O)n(C[C@H]3CCCO3)c2n1 equals -7.9

The recorded max response for entry Cc1cnc(CNc2ccnc(-c3ccccc3Cl)n2)cn1 equals 7.84

The recorded max response for entry CC(C)NC(=O)N1CCCC2(CCN(C(=O)c3cccc(F)c3)CC2)C1 equals 20.4

The recorded max response for entry O=c1cnc2cncnc2n1Cc1ccccc1 equals 15

The recorded max response for entry O=C(c1ccco1)N1CCC2(CC1)CCN(c1ncccn1)CC2 equals 9.29

The recorded max response for entry N#Cc1cccc(-c2nc(N3CCNCC3)c3ccccc3n2)c1 equals 6.46

The recorded max response for entry CCNc1ncc2nc(-c3ccc(Cl)cc3)c(=O)n(C[C@H]3CCCO3)c2n1 equals -16

The recorded max response for entry CN(Cc1ccco1)c1cc(-c2ccoc2)ncn1 equals 18

The recorded max response for entry Cc1ccccc1-c1nc(N2CCNCC2)c2ccccc2n1 equals 23.8

The recorded max response for entry Cc1noc(C)c1C(=O)N1CCC2(CC1)CN(c1ncccn1)C2 equals 15.3

The recorded max response for entry COCC(=O)N1CCC2(CC1)CCN(C(=O)Nc1cccc(C#N)c1)CC2 equals 4.68

The recorded max response for entry O=C(c1csnn1)N1CCC2(CC1)CN(C(c1ccccc1)c1ccccc1)C2 equals 18.7

The recorded max response for entry Cc1noc(C)c1-c1cncnc1N(C)Cc1ccco1 equals 11.5

The recorded max response for entry COc1cccc(Cn2c(=O)c(-c3cc(F)cc(F)c3)nc3cnc(N4CCN(C)CC4)nc32)c1 equals 19

The recorded max response for entry O=C(c1cnccn1)N1CCC2(CC1)CCN(C(c1ccccc1)c1ccccc1)CC2 equals 1.55

The recorded max response for entry O=C(c1csnn1)N1CCC2(CC1)CN(c1ccncc1)C2 equals 4.32

The recorded max response for entry COc1ncc2ncc(=O)n(C[C@H]3CCCO3)c2n1 equals 3.18

The recorded max response for entry COC(=O)N1CCC2(CC1)CN(C(c1ccccc1)c1ccccc1)C2 equals 5.36

The recorded max response for entry Cc1noc(C)c1C(=O)N1CCC2(CCN(Cc3cc(C(F)(F)F)cc(C(F)(F)F)c3)CC2)CC1 equals -5.2

The recorded max response for entry COc1ccc(Oc2ncc3ncc(=O)n(C[C@H]4CCCO4)c3n2)cc1 equals 9.86

The recorded max response for entry Cn1cc(-c2nc3cnc(Oc4ccccc4)nc3n(C3CC3)c2=O)c2ccccc21 equals 1.6

The recorded max response for entry COc1ccc(C(=O)N2CCC3(CC2)CN(c2ccncc2)C3)cc1 equals -4.69

The recorded max response for entry O=S(=O)(c1ccccc1)N1CCC2(CCN(C(c3ccccc3)c3ccccc3)CC2)CC1 equals 11.2

The recorded max response for entry Cc1ccccc1-c1cncnc1NCc1cccs1 equals 11.6

The recorded max response for entry Cc1ccccc1-c1cc(NCc2ccccc2)ncn1 equals 24.9

The recorded max response for entry c1csc(CNc2ccnc(-c3ccoc3)n2)c1 equals 21.1
